# TEST PROTOCOL: Biodistribution studies incl. blocking experiments
# Type: in vivo
# STUDY CONDITIONS: healthy BALB/c mice, 10 min p.i.
MEASUREMENT NAME: Biodistribution Lung (% ID/g)
A number alone suffices; assume % ID/g.

Just so you know, measured Biodistribution Lung for O=C(O)CN1CCN(CC(=O)O)CCN([C@H](CCC(=O)NCCCC(=O)NC(COCc2cn(CCOCCOCCO[C@@H]3O[C@H](CO)[C@H](O)[C@H](O)[C@H]3O)nn2)(COCc2cn(CCOCCOCCO[C@@H]3O[C@H](CO)[C@H](O)[C@H](O)[C@H]3O)nn2)COCc2cn(CCOCCOCCO[C@@H]3O[C@H](CO)[C@H](O)[C@H](O)[C@H]3O)nn2)C(=O)O)CC1 [[^68Ga]Ga-NODAGA-TriGalactan, metal not drawn] came out at 2.14

====

# TEST PROTOCOL: Biodistribution studies incl. blocking experiments
# Format: in vivo
# STUDY CONDITIONS: healthy BALB/c mice, 30 min p.i.
MEASUREMENT NAME: Biodistribution Kidneys (% ID/g)
Value expressed in % ID/g; do not type the unit.

The recorded Biodistribution Kidneys for O=C(CCP(=O)([O-])CN1CCN(CP(=O)([O-])CCC(=O)NCc2cn([C@@H]3O[C@H](CO)[C@H](O)[C@H](O)[C@H]3O)nn2)CCN(CP(=O)([O-])CCC(=O)NCc2cn([C@@H]3O[C@H](CO)[C@H](O)[C@H](O)[C@H]3O)nn2)CC1)NCc1cn([C@@H]2O[C@H](CO)[C@H](O)[C@H](O)[C@H]2O)nn1.[68Ga+3] [[^68Ga]Ga-Galacto-TRAP] is 0.88

Consider O=C(CCP(=O)([O-])CN1CCN(CP(=O)([O-])CCC(=O)NCc2cn(CCOCCOCCO[C@@H]3O[C@H](CO)[C@H](O)[C@H](O)[C@H]3O)nn2)CCN(CP(=O)([O-])CCC(=O)NCc2cn(CCOCCOCCO[C@@H]3O[C@H](CO)[C@H](O)[C@H](O)[C@H]3O)nn2)CC1)NCc1cn(CCOCCOCCO[C@@H]2O[C@H](CO)[C@H](O)[C@H](O)[C@H]2O)nn1.[68Ga+3] [[^68Ga]Ga-TRAP-Galactan] . Its measured Biodistribution Kidneys is 4.33

====

# TEST PROTOCOL: Biodistribution studies incl. blocking experiments
# Format: in vivo
# STUDY CONDITIONS: healthy BALB/c mice, 10 min p.i.
# reported Biodistribution Stomach; entries follow
Dear colleague, please return just the value in % ID/g, with no unit written.

compound="O=C(CCP(=O)([O-])CN1CCN(CP(=O)([O-])CCC(=O)NCc2cn(CCOCCOCCO[C@@H]3O[C@H](CO)[C@H](O)[C@H](O)[C@H]3O)nn2)CCN(CP(=O)([O-])CCC(=O)NCc2cn(CCOCCOCCO[C@@H]3O[C@H](CO)[C@H](O)[C@H](O)[C@H]3O)nn2)CC1)NCc1cn(CCOCCOCCO[C@@H]2O[C@H](CO)[C@H](O)[C@H](O)[C@H]2O)nn1.[68Ga+3] [[^68Ga]Ga-TRAP-Galactan]" reading_unit="% ID/g" readout_value=1.22

Lookup result for O=C(CCP(=O)([O-])CN1CCN(CP(=O)([O-])CCC(=O)NCc2cn([C@@H]3O[C@H](CO)[C@H](O)[C@H](O)[C@H]3O)nn2)CCN(CP(=O)([O-])CCC(=O)NCc2cn([C@@H]3O[C@H](CO)[C@H](O)[C@H](O)[C@H]3O)nn2)CC1)NCc1cn([C@@H]2O[C@H](CO)[C@H](O)[C@H](O)[C@H]2O)nn1.[68Ga+3] [[^68Ga]Ga-Galacto-TRAP] ; measured Biodistribution Stomach: 1.17

// Biodistribution Stomach lookup, compound = O=C(CCP(=O)([O-])CN1CCN(CP(=O)([O-])CCC(=O)NCc2cn(CCOCCOCCO[C@@H]3O[C@H](CO)[C@@H](O)[C@H](O)[C@H]3O)nn2)CCN(CP(=O)([O-])CCC(=O)NCc2cn(CCOCCOCCO[C@@H]3O[C@H](CO)[C@@H](O)[C@H](O)[C@H]3O)nn2)CC1)NCc1cn(CCOCCOCCO[C@@H]2O[C@H](CO)[C@@H](O)[C@H](O)[C@H]2O)nn1.[68Ga+3] [[^68Ga]Ga-TRAP-Gluco, reference compound] , result: 1.59

The measured Biodistribution Stomach associated with CC(=O)N[C@H]1[C@H](OCCOCCOCCn2cc(CNC(=O)CCP(=O)([O-])CN3CCN(CP(=O)([O-])CCC(=O)NCc4cn(CCOCCOCCO[C@@H]5O[C@H](CO)[C@H](O)[C@H](O)[C@H]5NC(C)=O)nn4)CCN(CP(=O)([O-])CCC(=O)NCc4cn(CCOCCOCCO[C@@H]5O[C@H](CO)[C@H](O)[C@H](O)[C@H]5NC(C)=O)nn4)CC3)nn2)O[C@H](CO)[C@H](O)[C@@H]1O.[68Ga+3] [[^68Ga]Ga-TRAP-GalNAc] reads 0.86

====

# TEST PROTOCOL: Biodistribution studies incl. blocking experiments
# Assay type: in vivo
# STUDY CONDITIONS: healthy BALB/c mice, 60 min p.i.
MEASUREMENT NAME: Biodistribution Heart (% ID/g)
# value in % ID/g; strip the unit string

compound="O=C(O)CN1CCN(CC(=O)O)CCN([C@H](CCC(=O)NCCCC(=O)NC(COCc2cn(CCOCCOCCO[C@@H]3O[C@H](CO)[C@H](O)[C@H](O)[C@H]3O)nn2)(COCc2cn(CCOCCOCCO[C@@H]3O[C@H](CO)[C@H](O)[C@H](O)[C@H]3O)nn2)COCc2cn(CCOCCOCCO[C@@H]3O[C@H](CO)[C@H](O)[C@H](O)[C@H]3O)nn2)C(=O)O)CC1 [[^68Ga]Ga-NODAGA-TriGalactan, metal not drawn]" reading_unit="% ID/g" readout_value=0.17
compound="O=C(CCP(=O)([O-])CN1CCN(CP(=O)([O-])CCC(=O)NCc2cn([C@@H]3O[C@H](CO)[C@H](O)[C@H](O)[C@H]3O)nn2)CCN(CP(=O)([O-])CCC(=O)NCc2cn([C@@H]3O[C@H](CO)[C@H](O)[C@H](O)[C@H]3O)nn2)CC1)NCc1cn([C@@H]2O[C@H](CO)[C@H](O)[C@H](O)[C@H]2O)nn1.[68Ga+3] [[^68Ga]Ga-Galacto-TRAP]" reading_unit="% ID/g" readout_value=4.84
compound="O=C(CCP(=O)([O-])CN1CCN(CP(=O)([O-])CCC(=O)NCc2cn(CCOCCOCCO[C@@H]3O[C@H](CO)[C@@H](O)[C@H](O)[C@H]3O)nn2)CCN(CP(=O)([O-])CCC(=O)NCc2cn(CCOCCOCCO[C@@H]3O[C@H](CO)[C@@H](O)[C@H](O)[C@H]3O)nn2)CC1)NCc1cn(CCOCCOCCO[C@@H]2O[C@H](CO)[C@@H](O)[C@H](O)[C@H]2O)nn1.[68Ga+3] [[^68Ga]Ga-TRAP-Gluco, reference compound]" reading_unit="% ID/g" readout_value=0.08

Lab note: next compound to report on.
Biodistribution Heart recorded for this compound, O=C(CCP(=O)([O-])CN1CCN(CP(=O)([O-])CCC(=O)NCc2cn(CCOCCOCCO[C@@H]3O[C@H](CO)[C@H](O)[C@H](O)[C@H]3O)nn2)CCN(CP(=O)([O-])CCC(=O)NCc2cn(CCOCCOCCO[C@@H]3O[C@H](CO)[C@H](O)[C@H](O)[C@H]3O)nn2)CC1)NCc1cn(CCOCCOCCO[C@@H]2O[C@H](CO)[C@H](O)[C@H](O)[C@H]2O)nn1.[68Ga+3] [[^68Ga]Ga-TRAP-Galactan] , is 0.16
